target: Sodium-dependent serotonin transporter (Homo sapiens); experiment: biochemical; assay type: cell-based, HEK293
Sequence (P31645 whole entry): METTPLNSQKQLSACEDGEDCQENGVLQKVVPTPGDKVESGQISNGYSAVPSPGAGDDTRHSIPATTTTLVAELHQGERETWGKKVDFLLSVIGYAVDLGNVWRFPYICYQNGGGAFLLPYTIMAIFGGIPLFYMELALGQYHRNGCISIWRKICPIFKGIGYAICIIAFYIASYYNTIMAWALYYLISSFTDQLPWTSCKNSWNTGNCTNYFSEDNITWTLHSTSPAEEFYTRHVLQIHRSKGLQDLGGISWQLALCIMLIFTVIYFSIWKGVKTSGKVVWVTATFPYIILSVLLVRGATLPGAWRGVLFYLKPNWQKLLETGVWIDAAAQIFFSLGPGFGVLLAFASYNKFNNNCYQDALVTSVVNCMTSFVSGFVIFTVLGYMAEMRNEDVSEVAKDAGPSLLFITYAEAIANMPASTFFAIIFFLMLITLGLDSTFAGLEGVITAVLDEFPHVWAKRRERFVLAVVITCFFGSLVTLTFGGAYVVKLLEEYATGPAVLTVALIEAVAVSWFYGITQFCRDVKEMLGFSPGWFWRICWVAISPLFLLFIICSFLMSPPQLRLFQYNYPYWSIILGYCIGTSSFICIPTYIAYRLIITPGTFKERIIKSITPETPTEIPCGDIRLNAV
Provide the recorded pKi for the entries that follow.
Answers are plain numbers, as −log10 of the molar value.

# count of solved cases: 6
[11CH3]Oc1ccc2c(c1)CCN(CCCc1c[nH]c3ccc(Br)cc13)C2    7.94
[11CH3]Oc1cccc2c1CCN(CCCc1c[nH]c3ccc(Br)cc13)C2    5.72
[11CH3]Oc1cccc2c1CCN(CCCc1c[nH]c3ccc(F)cc13)C2    8.19
CNC(C)Cc1ccc2c(c1)OCO2 (configuration not stated) [MIDOMAFETAMINE]    9.14
[11CH3]Oc1ccc2c(c1)CCN(CCCc1c[nH]c3ccc(I)cc13)C2    6.43
[11CH3]Oc1ccc2c(c1)CCN(CCCc1c[nH]c3ccc(F)cc13)C2    8.39

Could you now consider this next compound?
Q. So what does the record say about pKi for "[11CH3]Oc1cccc2c1CCN(CCCc1c[nH]c3ccc(I)cc13)C2" ?
A. 6.67

Each recorded value in this set is attributed to ChEMBL document CHEMBL1150402.
